System: OVCAR-4 ovarian
Experiment: NCI-60 one-dose screen, 48 h
Settings: 10 µM unless noted
Compounds without any hit were thinned out: in the full panel of roughly 83,000, 20% have a hit. Calls of active or inactive are those of the source. Rule for the calls: active = growth percent below 10; inactive = the rest.
The categories you may choose from are yes (active), no (inactive)

Some solved entries appear below for comparison.
MOL | ANSWER LABEL
c1ccc(-c2n(Cc3ccc4ccccc4n3)c3ccccc3[n+]2Cc2ccc3ccccc3n2)cc1 | yes
COc1ncnc2c1ncn2C/C(Br)=C(\Br)CCl | yes
O=[N+]([O-])c1ccc(C=C2C(Cl)=C(Cl)C(Cl)=C2Cl)cc1 | no
O=C(Nc1nc2ccccc2[nH]1)C(=O)Nc1nc2ccccc2[nH]1 | no
Cc1cc(C)c(S(=O)O)c(C)c1 | no

Given `Clc1ccc(C2=Nc3cccc4cccc(c34)N2)cc1Cl` , state the outcome it received in this test. no

Given `O=C(O)CCN1CCN(c2cccc(Cl)c2)CC1` , state the outcome it received in this test. no
